biological target: KRAS-G12D and SOS1 (Homo sapiens, UniProt P01116, G12D); assay: Inhibition of KRAS-G12D/SOS1 binding (Cisbio binding kit, 665/615 ratio), Effect Embodiment A; settings: read-out: GTP-KRAS-G12D:SOS1 IC50
Sequence (P01116 1-188 isoform P01116-2 G12D): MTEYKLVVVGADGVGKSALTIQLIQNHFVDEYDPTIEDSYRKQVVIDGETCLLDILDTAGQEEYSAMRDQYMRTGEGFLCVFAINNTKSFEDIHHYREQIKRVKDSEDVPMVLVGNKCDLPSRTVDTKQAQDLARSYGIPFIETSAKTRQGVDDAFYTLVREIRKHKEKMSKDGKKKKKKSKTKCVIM
Structures can show the parent of a compound that is named as a salt.
Documented pIC50 across a set of compounds
// pIC50 here means minus log10 of the molar concentration (mol/L)

As a guide, the following entries are already answered.
Qu. Item CN(C)C1CN(c2nc(NCCO)c3cc(Cl)c(-c4cc(O)cc5ccccc45)c(F)c3n2)C1 (single isomer, unassigned) [Compound 18b] with KRAS-G12D and SOS1 (Homo sapiens, UniProt P01116, G12D) - pIC50?
Ans. 5.63

Qu. Item CN(C)CC(C)(C)COc1nc(N2CC3CCC(C2)N3)c2cc(Cl)c(-c3cc(O)cc4ccccc34)c(F)c2n1 (single isomer, unassigned) [Compound 118, dihydrochloride] with KRAS-G12D and SOS1 (Homo sapiens, UniProt P01116, G12D) - pIC50?
Ans. 7.71

Qu. Item C#Cc1c(F)ccc2cc(O)cc(-c3c(Cl)cc4c(N5CC6CCC(C5)N6)nc(OCCCN5C6CCC5COC6)nc4c3F)c12 (single isomer, unassigned) [Compound 255a] with KRAS-G12D and SOS1 (Homo sapiens, UniProt P01116, G12D) - pIC50?
Ans. 5.29

Qu. Item C[C@H]1CN(CCCOc2nc(N3CC4CCC(C3)N4)c3cc(Cl)c(-c4cc(O)cc5ccccc45)c(F)c3n2)CCO1 (single isomer, unassigned) with KRAS-G12D and SOS1 (Homo sapiens, UniProt P01116, G12D) - pIC50?
Ans. 7.43

Then there is this compound:
Qu. Item Oc1cc(-c2c(Cl)cc3c(N4CC5CCC(C4)N5)nc(OCC(CN4C5CCC4COC5)C4CC4)nc3c2F)c2ccccc2c1 (single isomer, unassigned) [Compound 209a] with KRAS-G12D and SOS1 (Homo sapiens, UniProt P01116, G12D) - pIC50?
Ans. 7.44

====

Parameter 'readout' = IC50; parameter 'system' = KRAS_WT and SOS1 (Homo sapiens, UniProt P01116).
Sequence (P01116 1-188 isoform P01116-2): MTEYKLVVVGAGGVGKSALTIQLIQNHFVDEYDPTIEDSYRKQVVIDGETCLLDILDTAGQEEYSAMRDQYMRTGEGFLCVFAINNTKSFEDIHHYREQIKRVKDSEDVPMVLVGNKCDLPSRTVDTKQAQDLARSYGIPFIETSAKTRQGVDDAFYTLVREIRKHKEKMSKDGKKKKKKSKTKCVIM
Structures can show the parent of a compound that is named as a salt.
Entry rule: numbers only, all in nM.

Qu. Item Oc1cc(-c2c(Cl)cc3c(N4CC5CCC(C4)N5)nc(OCC(F)(F)CN4CCCC4)nc3c2F)c2ccccc2c1 (single isomer, unassigned) [Compound 107, dihydrochloride] with KRAS_WT and SOS1 (Homo sapiens, UniProt P01116) - IC50?
Ans. 3490

Qu. Item Oc1cc(-c2c(Cl)cc3c(N4CC5CCC(C4)N5)nc(OC[C@@H]4CCCN4C4CC4)nc3c2F)c2ccccc2c1 (single isomer, unassigned) [Compound 163, dihydrochloride] with KRAS_WT and SOS1 (Homo sapiens, UniProt P01116) - IC50?
Ans. 787

Then there is this molecule:
Qu. Item CN(C)CCCOc1nc(N2C[C@H]3CC[C@@H](C2)N3)c2cc(Cl)c(-c3cc(O)cc4ccccc34)c(F)c2n1 (single isomer, unassigned) [Compound 40a] with KRAS_WT and SOS1 (Homo sapiens, UniProt P01116) - IC50?
Ans. 1040

====

Target: KRAS_G12D and cRAF (Homo sapiens, UniProt P01116, G12D)
Construct: purchased
Sequence (P01116 1-188 isoform P01116-2 G12D): as the sequence (P01116 1-188 isoform P01116-2 G12D) above
Assay: Inhibition of KRAS_G12D/cRAF binding (Cisbio binding kit, 665/615 ratio), Effect Embodiment B
Details: read-out: GTP-KRAS-G12D:CRAF IC50
Experimental: Similarly, the first dilution point of the compound to be tested was its storage solution, and the solution was 3-fold diluted, with 11+0 points of dilution. Echo was used to transfer 0.2 μL gradient diluted solution of the compounds into a 384-well plate, with 2 duplicated wells for each compound, and the final concentration of DMSO was 1%. The solution was centrifuged for 1 min at 1000 rpm/min. IC50 of the compounds was fitted by Graphpad Prism 8 nonlinear regression equation: […]
Where a name gives a salt, the structure may show the parent alone.
Documented pIC50 across a set of molecules
// pIC50 here means minus log10 of the molar concentration (mol/L)

As a guide, the following entries are already answered.
Qu. Need pIC50, item CN1C[C@H](F)C[C@H]1COc1nc(N2CC3CCC(C2)N3)c2cc(Cl)c(-c3cc(O)cc4ccccc34)c(F)c2n1 (single isomer, unassigned) [Compound 168, dihydrochloride]
Ans. 7.65

Qu. Need pIC50, item `CN1CCC[C@H]1COc1nc(N2C[C@H]3CC[C@@H](C2)N3)c2ccc(-c3cc(O)cc4ccccc34)c(F)c2n1`
Ans. 7.75

Qu. Need pIC50, item CC(C)(COc1nc(N2CC3CCC(C2)N3)c2cc(Cl)c(-c3cc(O)cc4ccccc34)c(F)c2n1)CN1CCCC1 (single isomer, unassigned) [Compound 102, dihydrochloride]
Ans. 7.41

Qu. Need pIC50, item C[C@H]1COCCN1CCCOc1nc(N2C[C@H]3CC[C@@H](C2)N3)c2cc(Cl)c(-c3cc(O)cc4ccccc34)c(F)c2n1 (single isomer, unassigned) [Compound 174, diformate]
Ans. 6.77

Then there is this molecule:
Qu. Need pIC50, item Oc1cc(-c2c(Cl)cc3c(N4CC5CCC(C4)N5)nc(OCC(F)CN4CCCC4)nc3c2F)c2ccccc2c1 (single isomer, unassigned) [Compound 109a, hydrochloride]
Ans. 7.05

====

target: KRAS-G12D and SOS1 (Homo sapiens, UniProt P01116, G12D); assay: Inhibition of KRAS-G12D/SOS1 binding (Cisbio binding kit, 665/615 ratio), Effect Embodiment A; details: read-out: GTP-KRAS-G12D:SOS1 IC50
pIC50: −log10 of the molar value. Structures can show the parent of a compound that is named as a salt.
Response key: Yes means pIC50 >= 7; No means pIC50 < 7.

Qu. State whether the measured pIC50 reaches 7, counting equality as reaching it, for Oc1cc(-c2c(Cl)cc3c(N4CC5CCC(C4)N5)nc(OC[C@@H]4CCCN4C4CC4)nc3c2F)c2ccccc2c1 (single isomer, unassigned) [Compound 163, dihydrochloride]
Ans. Yes

Qu. State whether the measured pIC50 reaches 7, counting equality as reaching it, for CCc1cccc2cc(O)cc(-c3c(F)cc4c(N5CC6CCC(C5)N6)nc(OCCCN5C[C@@H](C)O[C@@H](C)C5)nc4c3F)c12 (single isomer, unassigned) [Compound 283a, dihydrochloride]
Ans. Yes

Qu. State whether the measured pIC50 reaches 7, counting equality as reaching it, for CN1CCCC1CCOc1nc(N2CC3CCC(C2)N3)c2cc(Cl)c(-c3cc(O)cc4ccccc34)c(F)c2n1 (single isomer, unassigned) [Compound 96b]
Ans. Yes

Consider now this further compound.
Qu. State whether the measured pIC50 reaches 7, counting equality as reaching it, for CN(C)CCN(C)c1nc(N2CC(N(C)C)C2)nc2c(F)c(-c3cc(O)cc4ccccc34)c(Cl)cc12 (single isomer, unassigned) [Compound 17a]
Ans. No

====

biological target: KRAS-G12D and SOS1 (Homo sapiens, UniProt P01116, G12D); assay: Inhibition of KRAS-G12D/SOS1 binding (Cisbio binding kit, 665/615 ratio), Effect Embodiment A; details: read-out: GTP-KRAS-G12D:SOS1 IC50
pIC50: −log10 of the molar value. Counter-ions that a name gives are not always drawn.
Response key: Condition met means pIC50 >= 7; Condition not met means pIC50 < 7.

Qu. State whether the measured pIC50 reaches 7, counting equality as reaching it, for CCc1cccc2cc(O)cc(-c3c(F)cc4c(N5CC6CCC(C5)N6)nc(OC[C@@]56CCCN5C[C@H](F)C6)nc4c3F)c12 (single isomer, unassigned) [Compound 285a, dihydrochloride]
Ans. Condition met

Qu. State whether the measured pIC50 reaches 7, counting equality as reaching it, for Oc1cc(-c2c(Cl)cc3c(N4CC5CCC(C4)N5)nc(OCCCN4C5CCCC4COC5)nc3c2F)c2ccccc2c1 (single isomer, unassigned) [Compound 177]
Ans. Condition met

Qu. State whether the measured pIC50 reaches 7, counting equality as reaching it, for CN(C)C1CN(c2nc(N3CC4CNCC4C3)c3cc(Cl)c(-c4cc(O)cc5ccccc45)c(F)c3n2)C1 (single isomer, unassigned) [Compound 14d]
Ans. Condition not met

Qu. State whether the measured pIC50 reaches 7, counting equality as reaching it, for CCc1cccc2cc(O)cc(-c3c(F)cc4c(N5CC6CCC(C5)N6)nc(OC[C@@]56CCCN5C[C@H](F)C6)nc4c3F)c12 (single isomer, unassigned) [Compound 285b, dihydrochloride]
Ans. Condition not met

Consider now this further compound.
Qu. State whether the measured pIC50 reaches 7, counting equality as reaching it, for C[C@@H](COc1nc(N2CC3CCC(C2)N3)c2cc(Cl)c(-c3cc(O)cc4ccccc34)c(F)c2n1)CN1CCO[C@H](C)C1 (single isomer, unassigned) [Compound 242]
Ans. Condition met

Where do these numbers come from? They come from patent US20230365563A1.
